- Test system: K. pneumonia Strain 52145 (Drug sensitive or control)
- assay.comment: MIC, ethyl gallate as activity enhancer of antibiotics, drug sensitive K. pneumonia
- Format: cell-based, Klebsiella pneumonia
- measurement.conditions: Klebsiella pneumoniae; agent alone (group A ethyl gallate alone, group B antibiotics alone); strain 52145; read-out: Minimum Inhibitory Concentration (MIC)
endpoint.name: MIC
Kindly report the value followed by its unit.

The cases that follow already have their MIC on record.
O=C(O)c1cn(C2CC2)c2cc(N3CCNCC3)c(F)cc2c1=O ... 0.06 µg/mL
CCOC(=O)c1cc(O)c(O)c(O)c1 [Ethyl gallate, ethyl gallate] ... 2 µg/mL

Exercise: For the compound shown here, `CN(C)[C@@H]1C(O)=C(C(N)=O)C(=O)[C@@]2(O)C(O)=C3C(=O)c4c(O)cccc4[C@@](C)(O)[C@H]3C[C@@H]12` , give the reported MIC.
Solution: 2 µg/mL

Exercise: Param item = `O=C(N[C@H](CO)[C@H](O)c1ccc([N+](=O)[O-])cc1)C(Cl)Cl` ; retrieve measured MIC.
Solution: 2 µg/mL
